Measured On: human GR (Homo sapiens)
Assay Details: Transrepression Assay (GITAR), TNFα-β-lactamase reporter in U937 cells
Type: cell-based
Set-up: U937 cells contain an endogenous glucocorticoid receptor (GR); endogenous in cells; host or cells: U937 cells stably transfected with the TNF-alpha promoter/beta-lactamase reporter
Conditions Used: U-937, U937 cells; maximum activity; read-out: Transrepression U937 Cells GITAR Emax
# key: entry, value: Emax

{"Molecule": "COc1ccccc1CCN(C[C@H]1CCC2=Cc3c(cnn3-c3ccccc3)C[C@@]21C)S(=O)(=O)CC(F)(F)F [Example 139]", "Emax": "72.4%"}
{"Molecule": "C[C@]12Cc3cnn(-c4ccc(F)cc4)c3C=C1CC[C@@H]2CN(CC#N)S(=O)(=O)c1ccc(Cl)c(C(F)(F)F)c1 [Example 27]", "Emax": "13%"}
{"Molecule": "C[C@@H](O)CN(C[C@H]1CCC2=Cc3c(cnn3-c3ccc(F)cc3)C[C@@]21C)S(=O)(=O)Cc1ccccc1C(N)=O [Example 184]", "Emax": "60.3%"}
{"Molecule": "C[C@]12Cc3cnn(-c4ccc(F)cc4)c3C=C1CC[C@@H]2CN(CC#N)S(=O)(=O)c1ccc(F)c(Cl)c1 [Example 20]", "Emax": "69.7%"}
{"Molecule": "COCCN(C[C@H]1CCC2=Cc3c(cnn3-c3ccc(F)cc3)C[C@@]21C)S(=O)(=O)c1c(C)noc1C [Example 173]", "Emax": "83%"}
{"Molecule": "C[C@]12Cc3cnn(-c4ccc(F)cc4)c3C=C1CC[C@@H]2CN(CCc1ccccc1F)S(=O)(=O)c1ccccc1C(F)(F)F [Example 99]", "Emax": "86.8%"}
{"Molecule": "Cc1cc(S(=O)(=O)N(CC#N)C[C@H]2CCC3=Cc4c(cnn4-c4ccc(F)cc4)C[C@@]32C)c(C)o1 [Example 33]", "Emax": "59.7%"}

* * *

Each record here notes measured pEC50.
Measured On: human GR (Homo sapiens, UniProt P04150)
Sequence (P04150 whole entry): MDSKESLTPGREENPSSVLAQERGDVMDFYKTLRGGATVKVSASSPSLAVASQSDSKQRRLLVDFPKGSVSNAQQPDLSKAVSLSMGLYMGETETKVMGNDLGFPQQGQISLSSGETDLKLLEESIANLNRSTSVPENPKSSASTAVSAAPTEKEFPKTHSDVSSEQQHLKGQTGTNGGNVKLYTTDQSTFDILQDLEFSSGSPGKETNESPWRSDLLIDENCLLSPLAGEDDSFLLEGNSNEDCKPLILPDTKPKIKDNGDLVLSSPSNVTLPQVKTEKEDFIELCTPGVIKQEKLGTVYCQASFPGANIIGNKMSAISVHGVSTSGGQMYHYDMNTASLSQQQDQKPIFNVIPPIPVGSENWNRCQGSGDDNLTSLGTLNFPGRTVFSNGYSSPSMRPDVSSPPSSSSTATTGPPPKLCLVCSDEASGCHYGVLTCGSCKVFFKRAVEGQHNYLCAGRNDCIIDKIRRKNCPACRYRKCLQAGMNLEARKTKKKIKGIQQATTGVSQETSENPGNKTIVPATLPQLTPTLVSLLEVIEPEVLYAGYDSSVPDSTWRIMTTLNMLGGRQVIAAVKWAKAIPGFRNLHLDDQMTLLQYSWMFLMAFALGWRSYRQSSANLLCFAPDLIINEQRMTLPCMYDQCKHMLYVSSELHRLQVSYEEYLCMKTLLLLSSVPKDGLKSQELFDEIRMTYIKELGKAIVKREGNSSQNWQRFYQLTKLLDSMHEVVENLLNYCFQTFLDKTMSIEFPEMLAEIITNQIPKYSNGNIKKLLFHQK
Assay Details: Trans-Activation Modulation of Glucocorticoid Receptor (GRAMMER), MMTV-LUC reporter, agonist mode
Format: cell-based
Set-up: endogenous in cells
Conditions Used: A549 cells; inflection point; read-out: Transactivation A549 Cells GRAMMER IP
pEC50: −log10 of the molar value.

{"Molecule": "COc1cccc(CCN(C[C@H]2CCC3=Cc4c(cnn4-c4ccc(F)cc4)C[C@@]32C)S(=O)(=O)CC(F)(F)F)c1", "pEC50": 6.64}
{"Molecule": "Cc1ccc(CCN(C[C@H]2CCC3=Cc4c(cnn4-c4ccc(F)cc4)C[C@@]32C)S(=O)(=O)c2ccccc2F)cc1", "pEC50": 6.19}
{"Molecule": "Cn1cc(S(=O)(=O)N(CC#N)C[C@H]2CCC3=Cc4c(cnn4-c4ccc(F)cc4)C[C@@]32C)c(C(F)(F)F)n1", "pEC50": 6.06}
{"Molecule": "C[C@]12Cc3cnn(-c4ccc(F)cc4)c3C=C1CC[C@@H]2CN(CC#N)S(=O)(=O)c1ccccc1C#N", "pEC50": 6.26}
{"Molecule": "C[C@]12Cc3cnn(-c4ccc(F)cc4)c3C=C1CC[C@@H]2CN(CC1CC1)S(=O)(=O)c1ccc(F)c(Cl)c1", "pEC50": 6.54}
{"Molecule": "CC(C1CCC2=Cc3c(cnn3-c3ccc(F)cc3)C[C@@]21C)N(CCc1ccccc1F)S(=O)(=O)CC(F)(F)F (stereo partly shown)", "pEC50": 6.53}
{"Molecule": "C[C@]12Cc3cnn(-c4ccc(F)cc4)c3C=C1CC[C@@H]2CN(CCc1ccccc1F)S(=O)(=O)c1ccccc1Cl", "pEC50": 6.40}

* * *

Measured On: human GR (Homo sapiens, UniProt P04150)
Assay Details: Transrepression Assay (GITAR), TNFα-β-lactamase reporter in U937 cells
Assay type: cell-based
Design: U937 cells contain an endogenous glucocorticoid receptor (GR); endogenous in cells; host or cells: U937 cells stably transfected with the TNF-alpha promoter/beta-lactamase reporter
Conditions Used: GITAR Emax minus GRAMMER Emax
Everything with GITAR > GRAMM % SEP lower than 30% is not fulfilled; everything else, including exactly 30%, is fulfilled.

{"Chemical Smiles": "CCN(C[C@H]1CCC2=Cc3c(cnn3-c3ccc(F)cc3)C[C@@]21C)S(=O)(=O)c1c(C)noc1C", "Measured On": "human GR (Homo sapiens, UniProt P04150)", "Class Assignment": "not fulfilled"}
{"Chemical Smiles": "CN1CCOc2cc(S(=O)(=O)N(CC3CC3)C[C@H]3CCC4=Cc5c(cnn5-c5ccc(F)cc5)C[C@@]43C)ccc21", "Measured On": "human GR (Homo sapiens, UniProt P04150)", "Class Assignment": "not fulfilled"}
{"Chemical Smiles": "C[C@]12Cc3cnn(-c4ccc(F)cc4)c3C=C1CC[C@@H]2CN(CC=O)S(=O)(=O)c1ccccc1F", "Measured On": "human GR (Homo sapiens, UniProt P04150)", "Class Assignment": "fulfilled"}
{"Chemical Smiles": "COCCN(C[C@H]1CCC2=Cc3c(cnn3-c3ccc(F)cc3)C[C@@]21C)S(=O)(=O)c1cn(C)nc1C(F)(F)F", "Measured On": "human GR (Homo sapiens, UniProt P04150)", "Class Assignment": "fulfilled"}
{"Chemical Smiles": "C[C@]12Cc3cnn(-c4ccc(F)cc4)c3C=C1CC[C@@H]2CN(CCc1ccccc1CO)S(=O)(=O)CC(F)(F)F", "Measured On": "human GR (Homo sapiens, UniProt P04150)", "Class Assignment": "fulfilled"}
{"Chemical Smiles": "C[C@]12Cc3cnn(-c4ccc(F)cc4)c3C=C1CC[C@@H]2CN(CC#N)S(=O)(=O)c1ccc(F)cc1", "Measured On": "human GR (Homo sapiens, UniProt P04150)", "Class Assignment": "not fulfilled"}
{"Chemical Smiles": "C[C@]12Cc3cnn(-c4ccc(F)cc4)c3C=C1CC[C@@H]2CN(CCc1ccccn1)S(=O)(=O)Cc1cccnc1", "Measured On": "human GR (Homo sapiens, UniProt P04150)", "Class Assignment": "fulfilled"}

* * *

Measured On: UniProt P04150
Assay Details: Trans-Activation Modulation of Glucocorticoid Receptor (GRAMMER), MMTV-LUC reporter, agonist mode
Assay type: cell-based
Set-up: endogenous in cells
Conditions Used: A549 cells; inflection point; read-out: Transactivation A549 Cells GRAMMER IP
pEC50: −log10 of the molar value.
Measured Metric: pEC50

{"Compound": "C[C@]12Cc3cnn(-c4ccc(F)cc4)c3C=C1CC[C@@H]2CN(CC1(O)CC1)S(=O)(=O)CC(F)(F)F", "Recorded Result": 6.90}
{"Compound": "C[C@]12Cc3cnn(-c4ccc(F)cc4)c3C=C1CC[C@@H]2CN(CCO)S(=O)(=O)c1ccc(C#N)cc1Cl", "Recorded Result": 6.11}
{"Compound": "CC(C1CCC2=Cc3c(cnn3-c3ccc(F)cc3)C[C@@]21C)N(CC1CC1)S(=O)(=O)CC(F)(F)F (stereo partly shown)", "Recorded Result": 6.68}
{"Compound": "C[C@]12Cc3cnn(-c4ccc(F)cc4)c3C=C1CC[C@@H]2CNS(=O)(=O)Cc1cccnc1", "Recorded Result": 5.78}
{"Compound": "CCCS(=O)(=O)N(CC(O)C(F)(F)F)C[C@H]1CCC2=Cc3c(cnn3-c3ccc(F)cc3)C[C@@]21C (stereo partly shown)", "Recorded Result": 6.40}
{"Compound": "C[C@]12Cc3cnn(-c4ccc(F)cc4)c3C=C1CC[C@@H]2CN(CC#N)S(=O)(=O)c1ccccc1Cl", "Recorded Result": 6.02}
{"Compound": "C[C@]12Cc3cnn(-c4ccccc4)c3C=C1CC[C@@H]2CN(CCc1ccccn1)S(=O)(=O)CC(F)(F)F", "Recorded Result": 6.69}

* * *

Measured On: human GR (Homo sapiens, UniProt P04150)
Assay Details: Trans-Activation Modulation of Glucocorticoid Receptor (GRAMMER), MMTV-LUC reporter, agonist mode
Assay type: cell-based
Set-up: endogenous in cells
Conditions Used: A549 cells; inflection point; read-out: Transactivation A549 Cells GRAMMER IP
Description: This assay assesses the ability of test compounds to control transcription from the MMTV-LUC reporter gene in lung adenocarcinoma A549 cells or MDA-MB-453 cells, a human breast cancer cell line that naturally expresses the human GR. […] The routine transient assay consists of plating 7,000-25,000 cells/well of a white, clear-bottom 96-well plate. […] The cells are trypsinized and counted to the right cell number in the proper amount of fresh media. […]
Param label: returns Condition met when EC50 < 900 nM, returns Condition not met otherwise, including exact equality.

{"Compound": "Cn1cc(S(=O)(=O)N(CCc2ccccc2F)C[C@H]2CCC3=Cc4c(cnn4-c4ccc(F)cc4)C[C@@]32C)c(C(F)(F)F)n1 [Example 98]", "Class Assignment": "Condition met"}
{"Compound": "C[C@]12Cc3cnn(-c4ccc(F)cc4)c3C=C1CC[C@@H]2CN(CC(O)C(F)(F)F)S(=O)(=O)Cc1ccccc1C(=O)O (stereo partly shown) [Example 164]", "Class Assignment": "Condition not met"}
{"Compound": "Cc1noc(C)c1S(=O)(=O)N(CCc1ccccc1O)C[C@H]1CCC2=Cc3c(cnn3-c3ccc(F)cc3)C[C@@]21C [Example 123]", "Class Assignment": "Condition met"}
{"Compound": "Cc1noc(C)c1S(=O)(=O)N(C[C@H]1CCC2=Cc3c(cnn3-c3ccc(F)cc3)C[C@@]21C)C[C@@H](C)O [Example 168]", "Class Assignment": "Condition met"}
{"Compound": "CC([C@H]1CCC2=Cc3c(cnn3-c3ccc(F)cc3)C[C@@]21C)N(CCc1ccccn1)S(=O)(=O)Cc1cccnc1 (stereo partly shown) [Example 197]", "Class Assignment": "Condition met"}
